Values were extracted from patent US20100022559A1.

I'd be grateful if you could share measured logP for these entries.
assay.overview: logP determination by HPLC on a reversed-phase column (C 18), EEC Directive 79/831 Annex V.A8
Format: physicochemical
reported.conditions: method marker [b]; isomer A / isomer B / isomer mixture as noted in the cell

Prompt: Which logP is reported for this compound? CC(=NOCCC(C)CCON=C(C)c1cccc(C)n1)c1cccc(C)n1 (centres unmarked)
Response: 4.38^[b]

Prompt: Try C=C(CON=C(C)c1cccs1)CON=C(C)c1cccs1 (single isomer, unassigned) [compound 79] next.
Response: 4,56^[b] (isomer A)

Prompt: Try CC(=NOCC1(CON=C(C)c2cccc(C)n2)CCO1)c1ccccn1 (racemic) next.
Response: 2.43^[b]

Prompt: Try `C=C(CON=C(C)c1cccc(C)n1)CON=C(C)c1ncc(Cl)cc1Cl` next.
Response: 4.72^b]

Prompt: Try `CC(=NOCCCCON=C(C)c1ccccn1)c1ccccn1` next.
Response: 3.00^[b]

Prompt: Try `C=C(CON=C(C)c1cccc(C)n1)CON=C(C)c1cccc(C(C)=O)n1` next.
Response: 4.43^[b]

Prompt: Try C=C(CON=C(C)c1cccc(C)n1)CON=C(C)c1ncccc1Cl (single isomer, unassigned) [compound 140] next.
Response: 4.40^[b] (isomer A)

Prompt: Try `C=C(CON=C(C)c1cccn1C)CON=C(C)c1cccn1C` next.
Response: 5.03^[b]

* * *

assay.overview: logP determination by HPLC on a reversed-phase column (C 18), EEC Directive 79/831 Annex V.A8
Format: physicochemical
reported.conditions: method marked [a] in Table 1
I'd be grateful if you could share measured logP for these entries.

Prompt: Which logP is reported for this molecule? Cc1cccc(C(=NOCC2(CON=C(c3cccc(C)n3)C3CC3)CC(c3ccccc3Cl)=NO2)C2CC2)n1 (stereo not shown)
Response: 4.46^[a]

Prompt: Try `Cc1cccnc1C(=NOCCCON=C(c1ccccc1)c1ncccc1C)c1ccccc1` next.
Response: 4.17^[a]

Prompt: Try Cc1cccc(C(=NOCC2(CON=C(c3cccc(C)n3)C3CC3)CC(CC(C)C)=NO2)C2CC2)n1 (stereo not shown) next.
Response: 3.99^[a]

Prompt: Try Cc1cccc(C(=NOCC2(CON=C(c3cccc(C)n3)C3CC3)CC(C(C)(C)C)=NO2)C2CC2)n1 (mixture of isomers) next.
Response: 3.98^[a]

Prompt: Try CC(=NOCC(C)CON=C(C)c1ccc(C)o1)c1ccc(C)o1 (mixture of isomers) next.
Response: 4.70^[a]

Prompt: Try `CC(=NOCC(C)(C)CON=C(C)c1cccc(-c2ccccc2)n1)c1cccc(-c2ccccc2)n1` next.
Response: 7.36^[a]

Prompt: Try CCC1=NOC(CON=C(c2cccc(C)n2)C(C)C)(CON=C(c2cccc(C)n2)C(C)C)C1 (stereo not shown) next.
Response: 4.79^[a]

* * *

assay.overview: logP determination by HPLC on a reversed-phase column (C 18), EEC Directive 79/831 Annex V.A8
Type: physicochemical
reported.conditions: reversed-phase HPLC column (C 18); HCO2H; HPLC reversed-phase column (C 18), 43° C.; read-out: logP (HCO2H)
measured.endpoint: chromatographic logP
Note: the reply should be a number with no unit written.

Prompt: Which chromatographic logP is reported for this molecule? Cc1cc(C)nc(/C(N)=N/OCC(C)CO/N=C(\N)c2nc(C)cc(C)n2)n1 (stereo not shown) [drawing 85]
Response: 1.81

Prompt: Try `CCC1=NOC(CO/N=C(\C)c2cccc(C)n2)(CO/N=C(\C)c2cccc(C)n2)C1` next.
Response: 2.68

Prompt: Try `CC(CON1C(=O)c2ccccc2C1=O)CON1C(=O)c2ccccc2C1=O` next.
Response: 2.87

Prompt: Try `CC(=NOCC(C)(C)CO/N=C(\C)c1cccc(C)n1)c1cc(C)cc(C)n1` next.
Response: 3.33

Prompt: Try `C/C(=N\OCC(=O)CO/N=C(\C)c1cccc(C)n1)c1cccc(C)n1` next.
Response: 2.2

Prompt: Try `C/C(=N\OCC1(CO/N=C(\C)c2ccc(C)c(C)n2)CC1)c1cc(C)cc(C)n1` next.
Response: 2.61

Prompt: Try `C/C(=N\OCC(C)(C)CCl)c1cccc(C)n1` next.
Response: 3.76

Prompt: Try `C/C(=N\OCC(CO/N=C(\C)c1cccc(C)n1)=NO)c1cccc(C)n1` next.
Response: 1.91

Prompt: Try `C/C(=N\OCC(C)CO/N=C(\C)c1cccc(C)n1)c1cccc(C)n1` next.
Response: 2.31

Prompt: Try `C/C(=N\OCC1(CON)CC1)c1ccc(C)c(C)n1` next.
Response: 0.73
